- System: Staphylococcus sp.
- assay_info: in vitro antibacterial evaluation, MIC by broth dilution
- Format: cell-based
- measurement_setup: broth dilution, 18 hours at 35° C.; strain GC 4546
MIC Staphylococcus haemolyticus (GC 4546) under 8 µg/mL gets Met, anything at or over 8 µg/mL gets Not met.

molecule	label_value
CC(c1ccccc1)C1NC(=O)CNC(=O)C(CO)NC(=O)C(CC2CNC(=N)N2C2OC(CO)C(O)C(O)C2O)NC(=O)C(CC2CNC(=N)N2)NC(=O)C(Cc2ccc(OC3OC(CO)C(OC4OC(CO)C(OCc5ccc(OCc6ccccc6)cc5)C(O)C4O)C(O)C3O)cc2)NC1=O (stereo not shown) [Example 246a]	Met
CC(c1ccccc1)C1NC(=O)CNC(=O)C(CO)NC(=O)C(C(O)C2CNC(=N)N2C2OC(CO)C(O)C(O)C2O)NC(=O)C(C(O)C2CNC(=N)N2)NC(=O)C(Cc2ccc(OC3OC(CO)C(OC4OC5COC(CC67CC8CC(CC(C8)C6)C7)OC5C(O)C4O)C(O)C3O)cc2)NC1=O (stereo not shown)	Met
COc1ccc(COCC2OC(OC3C(CO)OC(Oc4ccc(CC5NC(=O)C(C(C)c6ccccc6)NC(=O)CNC(=O)C(CO)NC(=O)C(C(O)C6CNC(=N)N6C6OC(CO)C(O)C(O)C6O)NC(=O)C(C(O)C6CNC(=N)N6)NC5=O)cc4)C(O)C3O)C(O)C(O)C2O)cc1 (stereo not shown)	Met
CC(c1ccccc1)C1NC(=O)CNC(=O)C(CO)NC(=O)C(C(O)C2CNC(=N)N2C2OC(CO)C(O)C(O)C2O)NC(=O)C(C(O)C2CNC(=N)N2)NC(=O)C(Cc2ccc(OC3OC(CO)C(OC4OC(CO)C(O)C5OC(c6ccccc6)OC45)C(O)C3O)cc2)NC1=O (single isomer, unassigned) [Example 104a]	Not met
CC(c1ccccc1)C1NC(=O)CNC(=O)C(CO)NC(=O)C(C(O)C2CNC(=N)N2C2OC(CO)C(O)C(O)C2O)NC(=O)C(C(O)C2CNC(=N)N2)NC(=O)C(Cc2ccc(OC3OC(CO)C(OC4OC(CO)C(OCC=Cc5ccc(N(C)C)cc5)C(O)C4O)C(O)C3O)cc2)NC1=O (stereo not shown) [Example 243a]	Not met

Prompt: Is it true that MIC Staphylococcus haemolyticus (GC 4546) reported for CC(c1ccccc1)C1NC(=O)CNC(=O)C(CO)NC(=O)C(C(O)C2CNC(=N)N2C2OC(CO)C(O)C(O)C2O)NC(=O)C(C(O)C2CNC(=N)N2)NC(=O)C(Cc2ccc(OC3OC(CO)C(OC4OC5COC(C6CC=CCC6)OC5C(O)C4O)C(O)C3O)cc2)NC1=O (stereo not shown) is less than 8 µg/mL?
Completion: Met

Prompt: Could you do the same for Cc1cc(C2OCC3OC(OC4C(CO)OC(Oc5ccc(CC6NC(=O)C(C(C)c7ccccc7)NC(=O)CNC(=O)C(CO)NC(=O)C(C(O)C7CNC(=N)N7C7OC(CO)C(O)C(O)C7O)NC(=O)C(C(O)C7CNC(=N)N7)NC6=O)cc5)C(O)C4O)C(O)C(O)C3O2)ccc1[N+](=O)[O-] (stereo not shown) , please?
Completion: Met

* * *

Listed here are compounds together with their documented MIC Escherichia coli (GC 4559).
- System: Escherichia coli
- assay_info: in vitro antibacterial evaluation, MIC by broth dilution
- Type: cell-based
- measurement_setup: 18 hours at 35° C.
Value expressed in µg/mL; do not type the unit.

Recorded MIC Escherichia coli (GC 4559), per entry:
compound	output_unit	MIC Escherichia coli (GC 4559)
CC(c1ccccc1)C1NC(=O)CNC(=O)C(CO)NC(=O)C(C(O)C2CNC(=N)N2C2OC(CO)C(O)C(O)C2O)NC(=O)C(C(O)C2CNC(=N)N2)NC(=O)C(Cc2ccc(OC3OC(CO)C(OC4OC5COC(C)(c6ccc(F)cc6)OC5C(O)C4O)C(O)C3O)cc2)NC1=O (stereo not shown) [Example 216]	µg/mL	16
CC(C)=CCN1CC(C(O)C2NC(=O)C(C(O)C3CNC(=N)N3)NC(=O)C(Cc3ccc(OC4OC(CO)C(OC5OC6COC7(OC6C(O)C5O)C5CC6CC(C5)CC7C6)C(O)C4O)cc3)NC(=O)C(C(C)c3ccccc3)NC(=O)CNC(=O)C(CO)NC2=O)N(C2OC(CO)C(O)C(O)C2O)C1=N (stereo not shown) [Example 225]	µg/mL	128

Prompt: Could you tell me which MIC Escherichia coli (GC 4559) is on file for CCCCN1CC(C(O)C2NC(=O)C(C(O)C3CNC(=N)N3)NC(=O)C(Cc3ccc(OC4OC(CO)C(OC5OC6COC7(OC6C(O)C5O)C5CC6CC(C5)CC7C6)C(O)C4O)cc3)NC(=O)C(C(C)c3ccccc3)NC(=O)CNC(=O)C(CO)NC2=O)N(C2OC(CO)C(O)C(O)C2O)C1=N (stereo not shown) [Example 224] ?
Completion: 64
